Target: T1, H-2 K^d molecules purified by affinity chromatography (human, UniProt P61769 21-119; P01902 22-305)
T1 construct: MHC class I molecule, 1-10 nM in the assay, with added human beta-2 microglobulin; also called purified MHC molecules
Experiment: radiolabeled peptide inhibition assay, purified H-2 K^d;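 note: competitive binding with labeled probe peptide kept below MHC concentration, so IC50 approximates the dissociation constant KD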
measure: IC50 (µM)

Examples from the recorded data:
EYLDLQTQ (Mut of E(y/D)LDLQTQ; Meth A) [Zfp236.1 Mut peptide] = 1.64
LYDVDAAF (Mut of L(y/D)DVDAAF; Meth A) [Cpsf2 Mut peptide] = 1.41

(a) HYLQGSNA (Mut of H(y/D)LQGSNA; Meth A) [Fiz1 Mut peptide]
(b) KYMSMLEER (Mut of K(y/D)MSMLEER; Meth A) [Ckap5 Mut peptide (Table 5, 9-mer)]
Pick one: a or b . Which has the bigger IC50 number? // output: label of the selected item
a
(a: 2.47 µM, b: 0.058 µM)
